Overview of reported melting point across a group of compounds:
Counter-ions that a name gives are not always drawn.

Sample answers from the record:
compound | melting point
Cc1ccc2c3c(ccc2n1)OC[C@H](CNC[C@H]1CCc2[nH]c4ccccc4c2C1)O3 (single isomer, unassigned) (as salt: hydrochloride) [Example 100a] | 202 to 205 °C (dec.)
Cc1ccc2c3c(ccc2n1)OC[C@H](CNC[C@@H]1CCc2c(c4cc(F)ccc4n2C)C1)O3 (as salt: hydrochloride) | 242 to 260 °C
Cc1ccc2c3c(ccc2n1)OC[C@H](CN(C[C@@H]1CCc2[nH]c4ccc(F)cc4c2C1)C1CCC1)O3.Cl.Cl.O.O (hydrate or solvate) | 215 to 230 °C
Cc1ccc2c3c(ccc2n1)OC[C@H](CN(C[C@H]1CCc2[nH]c4ccc(F)cc4c2C1)C1CCCC1)O3.Cl.O (hydrate or solvate) | 237 to 254 °C
Cc1ccc2c3c(ccc2n1)OC[C@H](CNCC1CCc2c(c4cc(F)ccc4n2C)C1)O3 (mixture of isomers) | 57 to 62 °C

Challenge: Which melting point is reported for this compound? Cc1ccc2c3c(ccc2n1)OC[C@H](CNC1CCc2c([nH]c4ccccc24)C1)O3.Cl.Cl (mixture of isomers)
Response given: 117 to 118 °C (dec.)

Challenge: Similarly, Cc1ccc2c3c(ccc2n1)OC[C@H](CNC[C@@H]1CCc2[nH]c4ccccc4c2C1)O3 (single isomer, unassigned) (as salt: hydrochloride) [Example 100b] ?
Response given: 218 to 221 °C (dec.)

Challenge: Note, next up: Cc1ccc2c3c(ccc2n1)OC[C@H](CN(C)C[C@@H]1CCc2c(c4cc(F)ccc4n2C)C1)O3.Cl.O (hydrate or solvate)
Response given: 244 to 256 °C
